Tested on: KRAS G12V dependent lung adenocarcinoma cell line, NCI-H441
TEST: Cellular pERK (Thr202/Tyr204) FRET/HTRF assay
Assay type: cell-based
RUN PARAMETERS: Homo sapiens, NCI-H441, cellular pERK (Thr202/Tyr204) HTRF, NCI-H441 cells
Recorded IC50, one value per entry.
MEASURED PARAMETER: IC50

MOLECULE	ASSAY VALUE
C#Cc1c(F)ccc2cc(N)cc(-c3ncc4c(N5CCOC[C@H]6[C@H](F)[C@H]65)nc(OC[C@@]56CCCN5C[C@@]5(CC5(F)F)C6)nc4c3F)c12 (single isomer, unassigned) [Example 211]	< 0.05 µM
[2H]C1([2H])CC2(CC2)[C@@]2(C([2H])([2H])Oc3nc(N4CCOC[C@H]5[C@H](F)[C@H]54)c4cnc(-c5cc(N)cc6ccc(F)c(C#C)c56)c(F)c4n3)C[C@]([2H])(F)CN12 (single isomer, unassigned) [Example 203]	< 0.05 µM
[2H]C([2H])(Oc1nc(N2CC[C@@H](C#N)C[C@@H]3[C@H](F)[C@@H]32)c2cnc(-c3cc(N)cc4ccc(F)c(C#C)c34)c(F)c2n1)[C@@]12CCCN1C[C@H](F)C2 [Example 311]	0.05 to 0.5 µM
Nc1cc(Cl)c(C(F)(F)F)c(-c2ncc3c(N4CCCC[C@@H]5[C@@H](F)[C@@H]54)nc(OC[C@@]45CCCN4C/C(=C\F)C5)nc3c2F)c1 [Example 374]	0.5 to 10 µM
[2H]C([2H])(F)Oc1c(F)ccc2cccc(-c3ncc4c(N5CCOC[C@H]6[C@H](F)[C@H]65)nc(OC[C@]56C/C(=C/F)CN5CCC65CC5)nc4c3F)c12 [Example 386]	< 0.05 µM

Data origin: patent US20250282799A1
